- ASSAY SYSTEM: cholesteryl ester transfer protein (CETP) (Homo sapiens, UniProt P11597)
- Construct: the source of CETP was human lipoprotein-deprived serum (LPDS)
- Sequence (P11597 18-493): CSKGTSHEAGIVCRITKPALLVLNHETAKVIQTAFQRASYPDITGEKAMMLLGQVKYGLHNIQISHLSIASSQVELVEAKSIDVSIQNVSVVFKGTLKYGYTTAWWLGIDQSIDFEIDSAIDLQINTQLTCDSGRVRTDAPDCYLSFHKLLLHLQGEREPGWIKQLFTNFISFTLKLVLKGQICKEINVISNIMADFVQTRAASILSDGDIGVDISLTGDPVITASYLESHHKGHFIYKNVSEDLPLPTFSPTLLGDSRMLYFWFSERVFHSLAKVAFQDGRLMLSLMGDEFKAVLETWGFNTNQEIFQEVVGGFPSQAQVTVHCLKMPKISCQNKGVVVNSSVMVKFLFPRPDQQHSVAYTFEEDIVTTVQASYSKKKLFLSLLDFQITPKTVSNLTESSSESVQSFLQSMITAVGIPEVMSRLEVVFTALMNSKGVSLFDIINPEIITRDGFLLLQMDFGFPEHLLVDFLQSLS
- EXPERIMENT DESCRIPTION: CETP activity SPA assay in the presence of plasma (source of CETP: human lipoprotein-deprived serum, LPDS)
- SETUP CONDITIONS: CETP from human lipoprotein-deprived serum (LPDS); transfer of radiolabeled cholesteryl ester from HDL donor to biotin-labeled LDL acceptor particles
pIC50: −log10 of the molar value.
In this section we review reported pIC50 values for a set of molecules.
RECORDED ENDPOINT: pIC50

                                 mol_smiles  meas_value
0  CC(C)(C)c1ccc(CN(CCc2ccc(Cl)c(Cl)c2)C(=O)c2cnccc2Cl)cc1        4.17
1  CCC(C)(C)c1ccc(CN(CCc2ccc(Cl)cc2)C(=O)c2cc(Cl)cc(Cl)c2)cc1        6.39
2  O=C(c1cc(Cl)cc(Cl)c1)N(CCc1ccc(Cl)cc1)Cc1ccc(C(F)(C(F)(F)F)C(F)(F)F)cc1        5.90
